assay: Entrapment efficiency of LNP preparation encapsulating EGFP mRNA; assay type: physicochemical; settings: LNP ionizable lipid/DOPE/cholesterol/DSPE-PEG2000 35/16/46.5/2.5 mol% encapsulating EGFP mRNA
recorded-metric: Entrapment Efficiency (%)

• CCCCCCCCCCC(O)CN(CCN1CCN(CCN(CCN(CC(O)CCCCCCCCCC)CC(O)CCCCCCCCCC)CCN(CC(O)CCCCCCCCCC)CC(O)CCCCCCCCCC)CC1)CC(O)CCCCCCCCCC (stereo not drawn) = 89.80
• CCCCCCCCCCC(O)CN(CCN(CCN1CCN(CCO)CC1)CCN(CC(O)CCCCCCCCCC)CC(O)CCCCCCCCCC)CC(O)CCCCCCCCCC (stereo not drawn) = 88.38
• CCCCCCCCCCCCCCCCC(O)CN(CCOCCOCCOCCN(CCOCCOCCOCCN(CC(O)CCCCCCCCCCCCCCCC)CC(O)CCCCCCCCCCCCCCCC)CCN1CCN(C)CC1)CC(O)CCCCCCCCCCCCCCCC (stereo not drawn) = 80.61
• CCCCCCCCCCCCC(O)CN(CCN1CCN(CCN(CCN(CC(O)CCCCCCCCCCCC)CC(O)CCCCCCCCCCCC)CCN(CC(O)CCCCCCCCCCCC)CC(O)CCCCCCCCCCCC)CC1)CC(O)CCCCCCCCCCCC (stereo not drawn) = 80.31
• CCCCCCCCCCCCC(O)CN(CCOCCOCCOCCN(CCOCCOCCOCCN(CC(O)CCCCCCCCCCCC)CC(O)CCCCCCCCCCCC)CCN1CCN(C)CC1)CC(O)CCCCCCCCCCCC (stereo not drawn) = 91.67
• CCCCCCCCCCCCCCC(O)CN(CCOCCOCCN(CCOCCOCCN(CC(O)CCCCCCCCCCCCCC)CC(O)CCCCCCCCCCCCCC)CCN1CCN(CCO)CC1)CC(O)CCCCCCCCCCCCCC (stereo not drawn) = 95.74
• CCCCCCCCCCCCCCC(O)CN(CCOCCOCCOCCN(CCOCCOCCOCCN(CC(O)CCCCCCCCCCCCCC)CC(O)CCCCCCCCCCCCCC)CCN1CCN(CCO)CC1)CC(O)CCCCCCCCCCCCCC (stereo not drawn) = 92.34
• CCCCCCCCCCCCCCC(O)CN(CCN(CCN1CCN(CCO)CC1)CCN(CC(O)CCCCCCCCCCCCCC)CC(O)CCCCCCCCCCCCCC)CC(O)CCCCCCCCCCCCCC (stereo not drawn) = 91.60
• CCCCCCCCCCC(O)CN(CCOCCOCCOCCN(CCOCCOCCOCCN(CC(O)CCCCCCCCCC)CC(O)CCCCCCCCCC)CCN1CCN(CCO)CC1)CC(O)CCCCCCCCCC (stereo not drawn) = 93.38
• CCCCCCCCCCCCCCCCC(O)CC(CCOCCOCCOCCN(CCOCCOCCOCCN(CC(O)CCCCCCCCCCCCCCCC)CC(O)CCCCCCCCCCCCCCCC)CCN1CCN(CCOCCOCCOCCN(CC(O)CCCCCCCCCCCCCCCC)CC(O)CCCCCCCCCCCCCCCC)CC1)CC(O)CCCCCCCCCCCCCCCC (stereo not drawn) = 88.54
• CCCCCCCCCCCCC(O)CN(CCN(CCN1CCN(CCO)CC1)CCN(CC(O)CCCCCCCCCCCC)CC(O)CCCCCCCCCCCC)CC(O)CCCCCCCCCCCC (stereo not drawn) = 87.59
• CCCCCCCCCCCCCCC(O)CN(CCOCCOCCN(CCOCCOCCN(CC(O)CCCCCCCCCCCCCC)CC(O)CCCCCCCCCCCCCC)CCN1CCN(C)CC1)CC(O)CCCCCCCCCCCCCC (stereo not drawn) = 85.40
• CCCCCCCCCCC(O)CN(CCOCCOCCN(CCOCCOCCN(CC(O)CCCCCCCCCC)CC(O)CCCCCCCCCC)CCN1CCN(CCO)CC1)CC(O)CCCCCCCCCC (stereo not drawn) = 92.83
• CCCCCCCCCCC(O)CN(CCOCCN(CCOCCN(CC(O)CCCCCCCCCC)CC(O)CCCCCCCCCC)CCN1CCN(CCOCCN(CC(O)CCCCCCCCCC)CC(O)CCCCCCCCCC)CC1)CC(O)CCCCCCCCCC (stereo not drawn) = 89.93
• CCCCCCCCCCC(O)CN(CCN(CCN1CCN(C)CC1)CCN(CC(O)CCCCCCCCCC)CC(O)CCCCCCCCCC)CC(O)CCCCCCCCCC (stereo not drawn) = 95.02
• CCCCCCCCCCCCC(O)CN(CCOCCOCCOCCN(CCOCCOCCOCCN(CC(O)CCCCCCCCCCCC)CC(O)CCCCCCCCCCCC)CCN1CCN(CCO)CC1)CC(O)CCCCCCCCCCCC (stereo not drawn) = 91.54
• CCCCCCCCCCC(O)CN(CCOCCOCCOCCN(CCOCCOCCOCCN(CC(O)CCCCCCCCCC)CC(O)CCCCCCCCCC)CCN1CCN(C)CC1)CC(O)CCCCCCCCCC (stereo not drawn) = 94.13
• CCCCCCCCCCCCCCCCC(O)CN(CCOCCN(CCOCCN(CC(O)CCCCCCCCCCCCCCCC)CC(O)CCCCCCCCCCCCCCCC)CCN1CCN(CCO)CC1)CC(O)CCCCCCCCCCCCCCCC (stereo not drawn) = 88.56
• CCCCCCCCCCCCC(O)CN(CCOCCOCCN(CCOCCOCCN(CC(O)CCCCCCCCCCCC)CC(O)CCCCCCCCCCCC)CCN1CCN(C)CC1)CC(O)CCCCCCCCCCCC (stereo not drawn) = 84.02
• CCCCCCCCCCC(O)CN(CCOCCOCCN(CCOCCOCCN(CC(O)CCCCCCCCCC)CC(O)CCCCCCCCCC)CCN1CCN(CCOCCOCCN(CC(O)CCCCCCCCCC)CC(O)CCCCCCCCCC)CC1)CC(O)CCCCCCCCCC (stereo not drawn) = 95.24
• CCCCCCCCCCC(O)CN(CCOCCOCCN(CCOCCOCCN(CC(O)CCCCCCCCCC)CC(O)CCCCCCCCCC)CCN1CCN(C)CC1)CC(O)CCCCCCCCCC (stereo not drawn) = 89.95
